IL-8, cross-linked by F(ab')2 fragment [abs. corr.] overview
- targetEntity: T1, CD27 expressed on the cell surface (HT1080_CD27 cells) (human, UniProt P26842 20-260); also: test concentration or dose not given here
- T1 sequence (looked up): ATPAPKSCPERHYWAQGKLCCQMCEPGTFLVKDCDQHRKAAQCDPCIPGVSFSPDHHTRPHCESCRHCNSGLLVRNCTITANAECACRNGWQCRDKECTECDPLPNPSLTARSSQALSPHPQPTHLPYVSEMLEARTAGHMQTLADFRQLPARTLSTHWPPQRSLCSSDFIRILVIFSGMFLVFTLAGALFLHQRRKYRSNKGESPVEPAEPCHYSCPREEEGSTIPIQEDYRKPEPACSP
- protocol: cell-based or functional assay
Number only, in abs. corr.; omit the unit.

P018.S.05.A.A04 (antibody, V domains shown, V regions on human Ig constant parts; also called AB27_81) VH: QEQLVESGGDLVKPGASLTLTCTASGIDFSSSYYMSWVRQAPGKGLEWIACIDTVDDYTYYASWAKGRFTISKTSSTTVSLQMTSLTAADTATYFCARERIDNNTDCFDLWGPGTLVTISS VL: AQVLTQTPSPVSAAVGGTVTISCQSSQSVVSKNRLAWYQQKPGQPPKLLIWLASKLASGVPSRFRGSGSGTQFTLTISGVQSDDAATYYCQGYYSGAIYAFGGGTDVVVK
1.37
P018.S.06.A.C06 (antibody, V domains shown, V regions on human Ig constant parts; also called AB27_102) VH: QQQLEESGGGLVKPGGTLTLPCKASGFTISSDYDMCWVRQAPGKGLEWITCILGGSGGSTWYANWAKGRFTISQSSSTTVTLQMTSLTDADTATYFCTRASGFTYFELWGPGTLVTVSS VL: AQVLTQTPSSVSAAVGGTVTINCQASQSVYNNKNLAWYQQKPGQPPKLLIYYASTLASGVSSRFKGSGSGTQFTLTISDVQSDDAATYYCQGEFSCSSSDCFAFGGGTEVVVK
1.08

Problem: Return reported IL-8, cross-linked by F(ab')2 fragment [abs. corr.]; argument: P018.S.01.A.A04 (antibody, V domains shown, V regions on human Ig constant parts; also called AB27_1) VH: QSVEESGGRLVTPGTPLTLTCTVSGFSLSRYWVSWVRQAPGKGLEAIGVIDNGDTAYYASWAKGRFTISKTSSITVDLKMTSLTTEDTATYFCTREGADHSGQDLWGQGTLVTVSS VL: AAVLTQTPSPVSAAVGGTVTINCQASQSVISNNDLSWYQQKPGQPPKLLIYRASNLASGVPSRFEGSGSGTQFTLTISDLESEDAATYYCQGGYAGIVDRRPFGGGTEVVVK
Solution: 1.03

The measurements presented in this section are drawn from patent US20210253725A1.
